Numbers sourced from the Human Domainome abundance scans (Beltran et al. 2025).

B1: GA-binding protein alpha chain, residues 172 to 250; numbered along this chain, Q06546 (parent)
chain: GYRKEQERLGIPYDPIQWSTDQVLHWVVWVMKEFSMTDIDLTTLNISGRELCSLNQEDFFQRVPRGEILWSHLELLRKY

Variants of: B1
Assay: abundance fitness (aPCA) (normalised: wild type 0, dead -1); higher = more abundant; growth selection in yeast, the domain comes from the species named
Details: Homo sapiens
Label rule, in plain words: abundance fitness of -0.3 and up is YES, under -0.3 is NO.

Observe how each entry below is paired with its result.
{"mutation notation": "P12T", "label value": "NO"}
{"mutation notation": "K78A", "label value": "YES"}

Test whether the variant E33S records abundance fitness of -0.3 or higher.
YES

Does Q22G have a reported abundance fitness of at least -0.3?
NO

Please indicate if the recorded abundance fitness for R62F meets or exceeds -0.3.
YES

Exam item: decide whether the reported abundance fitness for T43H is at least -0.3.
YES

Is reported abundance fitness greater than or equal to -0.3 here: L51N
NO

Could you verify whether the entry V30C shows abundance fitness of no less than -0.3?
YES

Does abundance fitness meet or surpass -0.3 for L75A ?
YES
